Target: Adenosine receptor A3 (Homo sapiens)
Sequence (P0DMS8 whole entry): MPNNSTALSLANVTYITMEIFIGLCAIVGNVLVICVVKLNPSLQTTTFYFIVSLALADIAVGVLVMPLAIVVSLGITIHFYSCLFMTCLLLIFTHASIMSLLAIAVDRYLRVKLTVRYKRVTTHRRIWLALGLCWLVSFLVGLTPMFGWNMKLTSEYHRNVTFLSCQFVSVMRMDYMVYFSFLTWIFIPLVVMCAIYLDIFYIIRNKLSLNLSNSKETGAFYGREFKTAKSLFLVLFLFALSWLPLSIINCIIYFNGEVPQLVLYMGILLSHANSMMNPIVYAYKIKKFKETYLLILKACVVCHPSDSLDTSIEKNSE
pKi: −log10 of the molar value.
Recorded pKi for molecules tested on Adenosine receptor A3 (Homo sapiens), drawn from a number of studies.
Measured attribute: pKi

// solved cases for pKi follow
[[record]]
mol_smiles = "Cn1cc2c(nc(NC(=O)Nc3ccoc3)n3nc(-c4ccco4)nc23)n1"
measured_number = 7.96

[[record]]
mol_smiles = "Nc1nc(OCCn2nnc3ccccc32)nc2c1ncn2[C@@H]1O[C@H](CO)[C@@H](O)[C@H]1O"
measured_number = 5.72

[[record]]
mol_smiles = "CCCn1c(=O)c2c(nc3[nH]c(C)cn32)n(Cc2cccnc2)c1=O"
measured_number = 7.24

[[record]]
mol_smiles = "N#Cc1cccc(-c2nc(N)c3nc(-c4ccco4)sc3n2)c1"
measured_number = 7.21

[[record]]
mol_smiles = "O=C(NCc1cccc2ccccc12)[C@H]1S[C@@H](n2cnc3c(NCc4cccc(I)c4)ncnc32)[C@H](O)[C@@H]1O"
measured_number = 5.92

[[record]]
mol_smiles = "O=C(Nc1nc2ccc(Cl)cc2c2nc(-c3ccco3)nn12)c1ccccc1"
measured_number = 8.52


1: Cc1nc2sc(-c3ccc(F)cc3)nc2c(=O)[nH]1
2: O=C(Nc1nc2ccccc2c2cn(-c3ccccc3)nc12)c1ccc(C(F)(F)F)cc1
Which has the smaller recorded pKi, 1 or 2 ? I would appreciate it if you answered with the label of your choice.
2
(2: 6.38, 1: 6.97)

====

Compiled literature Ki, tested on UniProt P0DMS8.
Measured attribute: Ki (µM)

Consider the reported Ki for these compounds:
[[record]]
compound = "CCCCC#Cc1nc2c(N)ncnc2n1[C@@H]1OC[C@@H](O)[C@H]1O"
measured_attribute = "Ki"
measured_number = 0.0317

[[record]]
compound = "COc1ccc(-c2nc(-c3ccc(OC)cc3)c3[nH]cnc3n2)cc1"
measured_attribute = "Ki"
measured_number = 0.165

[[record]]
compound = "COc1cc(-c2nc3c([nH]2)C2=NC(C)CN2C(=O)N3Cc2ccccc2)n(C)n1 (stereo not given)"
measured_attribute = "Ki"
measured_number = 0.00311

[[record]]
compound = "CCc1nc(-c2nccs2)c2sccc2n1"
measured_attribute = "Ki"
measured_number = 1.81

[[record]]
compound = "COc1ccccc1-n1cc2nc(-c3ccc(C)o3)nc(N)c2n1"
measured_attribute = "Ki"
measured_number = 0.297

[[record]]
compound = "CC(C)C/C=N/Nc1nc(N)c2ncn([C@@H]3O[C@H](CSC(C)C)[C@@H](O)[C@H]3O)c2n1"
measured_attribute = "Ki"
measured_number = 0.409

[[record]]
compound = "C[C@@H](Oc1ccccc1F)C(=O)Nc1nnc(-c2ccccc2)[nH]1"
measured_attribute = "Ki"
measured_number = 2.6

[[record]]
compound = "CCNc1nc(-n2cc(-c3ccccn3)cn2)nc2c1ncn2[C@@H]1O[C@H](CO)[C@@H](O)[C@H]1O"
measured_attribute = "Ki"
measured_number = 0.107


P: Nc1ccccc1-c1cc(-c2ccccc2)n[nH]1
Q: Cc1ccc(-n2cc3c(n2)c(N(C(=O)c2ccccc2)C(=O)c2ccccc2)nc2ccccc23)cc1
R: Nc1ncnc2c1ncn2[C@@H]1O[C@H](CO)[C@@H](O)[C@H]1N
Order the 3 compounds from highest to lowest Ki. Reply: labels, ordered per the request.
R, P, Q
(R: 1000 µM, P: 0.68 µM, Q: 0.03 µM)

A: O=C(Nc1nc2ccccc2n2c(=O)n(-c3ccccc3)nc12)C(c1ccccc1)c1ccccc1
B: c1ccc(Nc2nc3c(N4CCCCC4)ncnc3s2)cc1
C: C=CCN1C(=O)N2C[C@H](CC)N=C2c2[nH]c(-c3cc(OC)nn3C)nc21
D: O=C(Nc1ccc(-c2ccncc2)c(-c2ccco2)n1)C1CC1
In this exercise, place the 4 compounds in ascending sequence of their recorded Ki. Submit the labels in the order that the ranking request calls for.
A, C, D, B
(A: 0.00081 µM, C: 0.00237 µM, D: 1.34 µM, B: 12.1 µM)

====

Across several studies, compounds have been characterized by their pKi on Adenosine receptor A3 (Homo sapiens, UniProt P0DMS8); a selection follows.
Target: Adenosine receptor A3 (Homo sapiens, UniProt P0DMS8)
Sequence (P0DMS8 whole entry): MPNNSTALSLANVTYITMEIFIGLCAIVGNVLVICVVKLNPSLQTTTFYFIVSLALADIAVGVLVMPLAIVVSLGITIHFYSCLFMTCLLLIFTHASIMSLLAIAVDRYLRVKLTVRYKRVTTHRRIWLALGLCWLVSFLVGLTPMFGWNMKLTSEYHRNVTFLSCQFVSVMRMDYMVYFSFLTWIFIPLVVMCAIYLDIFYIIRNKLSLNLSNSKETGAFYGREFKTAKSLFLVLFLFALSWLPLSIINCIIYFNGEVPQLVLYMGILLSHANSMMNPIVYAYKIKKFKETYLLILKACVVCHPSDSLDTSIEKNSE
pKi: −log10 of the molar value.
Measured attribute: pKi

Example cases with answers are listed next.
[[record]]
mol_smiles = "CCOC(=O)c1nc(NC(=O)c2ccc(C)cc2)nc2nn(CCc3ccccc3)cc12"
subject_of_test = "Adenosine receptor A3 (Homo sapiens, UniProt P0DMS8)"
measured_number = 5.52

[[record]]
mol_smiles = "O=C(Nc1nc(-c2ccccn2)cs1)c1ccccc1"
subject_of_test = "Adenosine receptor A3 (Homo sapiens, UniProt P0DMS8)"
measured_number = 5.47

[[record]]
mol_smiles = "Cn1cc2c(nc(N=C(NC3CCCCC3)NC3CCCCC3)n3nc(-c4ccco4)nc23)n1"
subject_of_test = "Adenosine receptor A3 (Homo sapiens, UniProt P0DMS8)"
measured_number = 7.54

[[record]]
mol_smiles = "COc1ccc(C(=O)Nc2nc(-c3ccccc3)nc3cn(-c4ccccc4)nc23)cc1"
subject_of_test = "Adenosine receptor A3 (Homo sapiens, UniProt P0DMS8)"
measured_number = 8.14

[[record]]
mol_smiles = "CCCn1c(=O)c2nc(-c3cnn(Cc4nc(-c5cccc(C(F)(F)F)c5)no4)c3)[nH]c2n(CCC)c1=O"
subject_of_test = "Adenosine receptor A3 (Homo sapiens, UniProt P0DMS8)"
measured_number = 6.02


A: CC(=O)Nc1nc(C)nc2cn(-c3ccccc3)nc12
B: Nc1nc(-c2ccc3c(c2)OCO3)cn2c(=O)n(-c3ccccc3)nc12
C: Nc1nc(-c2ccc(O)c(O)c2)cn2c(=O)n(-c3ccccc3)nc12
D: Cc1nc(NC(=O)c2ccncc2)c2nn(-c3ccccc3)cc2n1
E: O=C(Cc1ccccc1)Nc1nc(Cl)c2cn(CCc3ccccc3)nc2n1
Reorder: pKi, max to min. # answer = labels listed in requested order
D, B, A, C, E
(D: 8.28, B: 7.42, A: 6.52, C: 6.02, E: 4.94)

====

This section presents Ki values reported for Adenosine receptor A3 (Homo sapiens, UniProt P0DMS8) in the literature.
Measured attribute: Ki (nM)

[[record]]
compound = "O=C(Nc1nc(-c2ccccn2)cs1)c1cccc(Cl)c1"
measured_attribute = "Ki"
measured_number = 4600

[[record]]
compound = "CCNC(=O)[C@H]1OC(n2cnc3c(NC(=O)Nc4ccc(S(=O)(=O)NC5CCCC5)cc4)ncnc32)C(O)C1O (single isomer, unassigned)"
measured_attribute = "Ki"
measured_number = 24

[[record]]
compound = "Cn1cc2c(nc(NC(=O)NC3CCN(C(=O)NC4CCCCCC4)CC3)n3nc(-c4ccco4)nc23)n1"
measured_attribute = "Ki"
measured_number = 7.7

[[record]]
compound = "CCOC(=O)c1c(NC(=O)c2sc(Nc3ccccc3)nc2N(C)C)sc2c1CCCC2"
measured_attribute = "Ki"
measured_number = 4120

[[record]]
compound = "Cn1cc2c(nc(NC(=O)c3ccccc3)n3nc(-c4ccc(Br)cc4)nc23)n1"
measured_attribute = "Ki"
measured_number = 5.24

[[record]]
compound = "Clc1ccc(-c2nc(N3CCCCC3)c3nc[nH]c3n2)cc1Cl"
measured_attribute = "Ki"
measured_number = 79.4

[[record]]
compound = "O=c1[nH]c(=O)c2cc(-c3ccncn3)c(-c3ccco3)nc2[nH]1"
measured_attribute = "Ki"
measured_number = 6270

[[record]]
compound = "O=C(/C=C/c1c(-c2ccccc2)nn2ccccc12)N1CCCC[C@@H]1CCO"
measured_attribute = "Ki"
measured_number = 2800


A: CCCC/C=C/c1nc(N)c2ncn([C@@H]3OC[C@@H](O)[C@H]3O)c2n1
B: CNc1nc(Cl)nc2c1ncn2[C@@H]1O[C@H](C(=O)N2CCC(Cc3ccccc3)CC2)[C@@H](O)[C@H]1O
When their Ki values are compared, which is larger, A or B ? Output the label that corresponds to your choice.
B

P: O=C(Nc1ccccc1)Nc1nn(-c2ccccc2)c(=O)c2ccccc12
Q: O=C(Nc1nc(-c2ccccc2)nc2cn(-c3ccccc3)nc12)c1cccnc1
R: Cn1cc2c(nc(NC34CC5CC(CC(C5)C3)C4)n3nc(-c4ccco4)nc23)n1
S: CC(=O)Oc1ccc(-n2nc3c(=O)[nH]c4ccccc4n3c2=O)cc1
Please rank these compounds by Ki in descending order. Provide the ranking by listing each label in its place in the requested order.
P, R, S, Q

P: COC(=O)C1=C2C=CN(C)C=C2c2nc(-c3ccccc3)nn2C1
Q: Cn1cc2c(nc(N(C(=O)c3ccccc3)C(=O)c3ccccc3)n3nc(-c4ccc(Cl)cc4)nc23)n1
Of P and Q , which one carries the higher reported Ki? // caller expects the label of the chosen entry
P
(P: 13 nM, Q: 6.94 nM)

A: C#CCn1c(=O)c2c(nc3ccccn32)n(Cc2ccccc2)c1=O
B: O=C(COc1ccccc1)Nc1nc(-c2ccc(F)cc2)n[nH]1
C: N[C@@H]1CS[C@@H](n2cnc3c(NCc4cccc(I)c4)ncnc32)[C@@H]1O
D: CCNC(=O)c1cnn(-c2nc(NC3CCCC3)c3ncn([C@@H]4O[C@H](CO)[C@@H](O)[C@H]4O)c3n2)c1
E: O=C(Nc1nc2ccccc2c2cn(-c3cccc(C(F)(F)F)c3)nc12)c1ccccc1
Which order do these items take when sorted by rising Ki? List them. // format: requested-order list of labels
A, D, E, C, B
(A: 14 nM, D: 20 nM, E: 52 nM, C: 260 nM, B: 1500 nM)
